Recorded measurements of IC50, one per entry
target_under_test: V-ATPase (Homo sapiens, UniProt P27449)
Construct: endogenous in cells; host or cells: primary CD4+ T cells (HIV ΔGPE infected) from donor PBMCs
method_summary: Lysosomal acidification (Lysotracker mean fluorescence intensity) as indicator of V-ATPase activity in primary CD4+ T cells
Assay type: cell-based
reported_conditions: Lysotracker Red, ΔGPE infected primary CD4+ T cells, 24 hours after treatment; read-out: Lysotracker (V-ATPase IC50, lysosomal neutralization)

Lab request: please report IC50 under test system V-ATPase (Homo sapiens, UniProt P27449) for CNC(=O)O[C@@H](CC(C)C)c1nc([C@H]2OC(=O)/C(C)=C/C/C(C)=C/[C@@H](O)[C@@H](C)\C=C(C)/C=C(C)\C=C\[C@@H](O)[C@H](C)[C@H](OC)/C(C)=C/C=C/[C@@H]2C)cs1 [Compound 3, Archazolid A, reference compound] 1.6 nM

---

target_under_test: V-ATPase (Homo sapiens)
Construct: endogenous in cells; host or cells: primary CD4+ T cells (HIV ΔGPE infected) from donor PBMCs
method_summary: Lysosomal acidification (Lysotracker mean fluorescence intensity) as indicator of V-ATPase activity in primary CD4+ T cells
Format: cell-based
Flag rule - IC50 less than 40 nM flags class 1; the remaining entries get class 0.

Use the examples below as a reference point.
{"molecule": "C/C=C/[C@H]1O[C@@](O)([C@@H](C)[C@H](O)[C@H](C)[C@H]2OC(=O)/C(OC)=C/C(C)=C/[C@@H](C)[C@@H](O)[C@@H](C)[C@@H](OC(=O)CCCC)[C@H](C)C/C(C)=C/C=C/[C@@H]2OC)C[C@@H](O[C@@H]2C[C@H](OC(=O)CCCC)[C@@H](OC(N)=O)[C@H](C)O2)[C@@H]1C [Compound 10, 3′,9-Dipentanoate Concanamycin B]", "target_under_test": "V-ATPase (Homo sapiens)", "classification": "class 0"}
{"molecule": "C/C=C/[C@H]1O[C@@H]([C@@H](C)[C@H](O)[C@H](C)[C@H]2OC(=O)/C(OC)=C/C(C)=C/[C@@H](C)[C@@H](O)[C@@H](CC)[C@@H](O)[C@H](C)C/C(C)=C/C=C/[C@@H]2OC)C[C@@H](O[C@@H]2C[C@H](O)[C@@H](O)[C@H](C)O2)[C@@H]1C [Compound S62, 21-Deoxy CMC]", "target_under_test": "V-ATPase (Homo sapiens)", "classification": "class 1"}

Quick check: IC50 of CO/C1=C\C(C)=C\[C@@H](C)[C@@H](OC(C)=O)[C@@H](C)C/C(C)=C/C=C/[C@H](OC)[C@@H]([C@@H](C)[C@@H](O)[C@H](C)[C@@]2(O)C[C@@H](OC(C)=O)[C@H](C)C(C(C)C)O2)OC1=O (stereo partly shown) [Compound S19] under 40 nM? class 0

Proceed to CC1=CC[C@H]2O[C@]1(C)O[C@H]([C@H](C)/C=C(C)/C=C/C(O)=C1/C(=O)CNC1=O)[C@H]2C [Tirandamycin C, reference compound] class 0

Proceed to C/C=C/[C@H]1O[C@@](O)([C@@H](C)[C@H](O)[C@H](C)[C@H]2OC(=O)/C(OC)=C/C(C)=C/[C@@H](C)[C@@H](O)[C@@H](C)[C@@H](OC(C)=O)[C@H](C)C/C(C)=C/C=C/[C@@H]2OC)C[C@@H](O[C@@H]2C[C@H](OC(C)=O)[C@@H](OC(N)=O)[C@H](C)O2)[C@@H]1C [Compound 13, 3′,9-Diacetyl CMB] class 1

Proceed to CO/C1=C\C(C)=C\[C@@H](C)[C@@H](O)[C@@H](C)C/C(C)=C/C=C/[C@H](OC)[C@@H]([C@@H](C)[C@@H](O)[C@H](C)[C@H]2C[C@@H](OC)[C@H](C)[C@@H](C(C)C)O2)OC1=O [Compound S6] class 0

Proceed to CC=CC=CC1OC(O)(C(C)C(O)C(C)C2OC(=O)C(OC)=CC(C)=CC(C)C(O)C(C)CC(C)=CC=CC2OC)CC(OC2CC(O)C(O)C(C)O2)C1C (stereo not shown) [Compound S15, PC-766B, reference compound] class 1

---

method_summary: in vitro
reported_conditions: human
property_name: CC50
Note: state the figure and append the unit.

Return reported CC50; argument: C/C=C/[C@H]1O[C@@](O)([C@@H](C)[C@H](O)[C@H](C)[C@H]2OC(=O)/C(OC)=C/C(C)=C/[C@@H](C)[C@@H](O)[C@@H](C)[C@@H](OC(=O)CCCC)[C@H](C)C/C(C)=C/C=C/[C@@H]2OC)C[C@@H](O[C@@H]2C[C@H](OC(=O)CCCC)[C@@H](OC(N)=O)[C@H](C)O2)[C@@H]1C [Compound 10, 3′,9-Dipentanoate Concanamycin B] 35 nM

Proceed to COC1=CC(C)=CC(C)C(O)C(C)CC(C)=CC=CC(OC)C(C(C)C(O)C(C)C2(O)CC(OC3OC(C)C(O)C(O)C3OC)C(C)C(C(C)C)O2)OC1=O (stereo not drawn) [Compound S14, Leucanicidin, reference compound] 1.4 nM

Proceed to C/C=C/[C@H]1O[C@@](O)([C@@H](C)[C@H](O)[C@H](C)[C@H]2OC(=O)/C(OC)=C/C(C)=C/[C@@H](C)[C@@H](O)[C@@H](CC)[C@@H](OC(C)=O)[C@H](C)C/C(C)=C/C=C/[C@@H]2OC)C[C@@H](O[C@@H]2C[C@H](OC(C)=O)[C@@H](OC(C)=O)[C@H](C)O2)[C@@H]1C 4.5 nM

---

target_under_test: V-ATPase (Homo sapiens)
Construct: endogenous in cells; host or cells: primary CD4+ T cells (HIV ΔGPE infected) from donor PBMCs
method_summary: Lysosomal acidification (Lysotracker mean fluorescence intensity) as indicator of V-ATPase activity in primary CD4+ T cells
Type: cell-based
reported_conditions: Lysotracker Red, ΔGPE infected primary CD4+ T cells, 24 hours after treatment; read-out: Lysotracker (V-ATPase IC50, lysosomal neutralization)
property_name: pIC50
Scale explanation: pIC50 corresponds to minus log10 of a concentration expressed in moles per litre.

Lab request: please report pIC50 under test system V-ATPase (Homo sapiens) for C/C=C/[C@H]1O[C@@](O)([C@@H](C)[C@H](O)[C@H](C)[C@H]2OC(=O)/C(OC)=C/C(C)=C/[C@@H](C)[C@@H](O)[C@@H](CC)[C@@H](O)[C@H](C)C/C(C)=C/C=C/[C@@H]2OC)C[C@@H](O[C@H]2C[C@@H](O)[C@H](O)[C@@H](C)O2)[C@@H]1C [Compound 5, concanamycin C, reference compound] 8.43

---

Recorded measurements of CC50, one per entry
method_summary: in vitro
reported_conditions: human
Report the figure in nM without appending any unit label.

{"molecule": "CC=CC=CC1OC(O)(C(C)C(O)C(C)C2OC(=O)C(OC)=CC(C)=CC(C)C(O)C(C)CC(C)=CC=CC2OC)CC(OC2CC(O)C(O)C(C)O2)C1C (centres unmarked) [Compound S15, PC-766B, reference compound]", "display_unit": "nM", "CC50": 1.3}

Kindly review the next molecule as well.
Return reported CC50; argument: CC=CC1OC(O)(C(C)C(O)C(C)C2OC(=O)C(OC)=CC(C)=CC(C)C(O)C(CC)C(O)C(C)CC(C)=CC=CC2OC)CC(OC2CC(O)C(OC(N)=O)C(C)O2)C1C (centres unmarked) [Compound 1, Concanamycin A, reference compound] 1.3

---

Recorded measurements of Viability:Nef (therapeutic window separating Nef IC50 and TC50), one per entry
Test system: primary CD4+ T cells
method_summary: in vitro
reported_conditions: ratio TC50 to Nef IC50
Report the figure in fold without appending any unit label.

Consider the reported Viability:Nef (therapeutic window separating Nef IC50 and TC50) for these compounds:
{"compound": "C/C=C/[C@H]1O[C@@](O)([C@@H](C)[C@H](O)[C@H](C)[C@H]2OC(=O)/C(OC)=C/C(C)=C/[C@@H](C)[C@@H](O)[C@@H](CC)[C@@H](O)[C@H](C)C/C(C)=C/C=C/[C@@H]2OC)C[C@@H](O[C@@H]2C[C@H](OC(C)=O)[C@@H](OC(C)=O)[C@H](C)O2)[C@@H]1C", "measured_number": 1.8}
{"compound": "CO/C1=C\\C(C)=C\\[C@@H](C)[C@@H](O)[C@@H](C)C/C(C)=C/C=C/[C@H](OC)[C@@H]([C@@H](C)[C@@H](O)[C@H](C)[C@@]2(O)C[C@@H](OC(C)=O)[C@H](C)C(C(C)C)O2)OC1=O (some centres unmarked)", "measured_number": 2.4}
{"compound": "C[C@@H]1C[C@H](C)C[C@H](C)[C@@H](O)CC(=O)O[C@H]([C@@H]2CCC[C@H]2C(=O)O)C/C=C/C=C(/C#N)[C@H](O)[C@@H](C)C1 [Compound S2, Borrelidin, reference compound]", "measured_number": 2.0}
{"compound": "C/C=C/[C@H]1O[C@@](O)([C@@H](C)[C@H](O)[C@H](C)[C@H]2OC(=O)/C(OC)=C/C(C)=C/[C@@H](C)[C@@H](O)[C@@H](CC)[C@@H](O)[C@H](C)C/C(C)=C/C=C/[C@@H]2OC)C[C@@H](O[C@@H]2C[C@H](OC(C)=O)[C@@H](OC(N)=O)[C@H](C)O2)[C@@H]1C", "measured_number": 8.5}
{"compound": "CO/C1=C\\C(C)=C\\[C@@H](C)[C@@H](O)[C@@H](C)C/C(C)=C/C=C/[C@H](OC)[C@@H]([C@@H](C)[C@@H](O)[C@H](C)[C@H]2C[C@@H](OC)[C@H](C)[C@@H](C(C)C)O2)OC1=O", "measured_number": 1.4}

Return reported Viability:Nef (therapeutic window separating Nef IC50 and TC50); argument: C/C=C/[C@H]1O[C@@](O)([C@@H](C)[C@H](O)[C@H](C)[C@H]2OC(=O)/C(OC)=C/C(C)=C/[C@@H](C)[C@@H](O)[C@@H](C)[C@@H](O)[C@H](C)C/C(C)=C/C=C/[C@@H]2OC)C[C@@H](O[C@@H]2C[C@H](OC(=O)CCCC)[C@@H](OC(N)=O)[C@H](C)O2)[C@@H]1C [Compound 9, 3-pentanoate Concanamycin B] 7.9

Proceed to CC[C@H]1OC(=O)[C@H](C)[C@@H](O)[C@@H](C)C[C@@H](C)C(=O)/C=C/[C@H]1C [10-deoxymethynolide, reference compound] 0.39

Proceed to CO/C1=C\C(C)=C\[C@@H](C)[C@@H](O)[C@@H](C)C/C(C)=C/C=C/[C@H](OC)[C@@H]([C@@H](C)[C@@H](O)[C@H](C)[C@@]2(O)C[C@@H](OC=O)[C@H](C)[C@@H](C(C)C)O2)OC1=O 2.6
